Examples of compounds with documented melting point follow.

Look up melting point: CN(C)c1nc(Cc2ccc(NC(=O)c3ccc4ccccc4n3)cc2)ncc1CC(=O)O [Example 2-9]
136 to 144 °C

Look up melting point: CN(C)c1nc(Cc2ccc(NC(=O)c3ccccc3Oc3ccccc3)cc2)nc(N2CCCC2)c1CC(=O)O [Example 7-22]
192 to 194 °C

Look up melting point: CN(CC(=O)NC1CCCC1)c1nc(Cc2ccc(NC(=O)c3ccc4ccccc4c3)cc2)nc(Cl)c1CC(=O)O [Example 1-62]
> 176 °C

Look up melting point: CCc1nc(Cc2ccc(NC(=O)c3ccc4ccccc4c3)cc2)nc(N(C)C)c1CC(=O)O [Example 8-8]
148 to 150 °C

====

EXPERIMENTAL_SYSTEM: human CRTH2 (Homo sapiens, UniProt Q9Y5Y4)
Construct: expressed in transfected cells; host or cells: L1.2 cells, pEAK expression vector, puromycin-selected
MEASUREMENT_DESCRIPTION: Measurement of Ca2+ mobilization in the human CRTH2-transfected L1.2 cell line (Assay 1)
Format: cell-based
EXPERIMENTAL_CONTEXT: PGD2-induced Ca2+ mobilization in CRTH2-transfected L1.2 cells; compounds as yielded by solid phase synthesis, purity about 40 to 90%; read-out: Activity class
pIC50: −log10 of the molar value.
MEASURED_PROPERTY: pIC50

# example entries with known answers
- STRUCTURE_SMILES: "CN(C)c1nc(Cc2ccc(N(C)C(=O)/C=C/c3ccccc3)cc2)nc(Cl)c1CC(=O)O"
  EXPERIMENTAL_SYSTEM: "human CRTH2 (Homo sapiens, UniProt Q9Y5Y4)"
  RESULT: "< 6.30"
- STRUCTURE_SMILES: "CN(CC(=O)NC1CCCC1)c1nc(Cc2ccc(NC(=O)/C=C/c3ccccc3)cc2)nc(Cl)c1CC(=O)O"
  EXPERIMENTAL_SYSTEM: "human CRTH2 (Homo sapiens, UniProt Q9Y5Y4)"
  RESULT: "> 8.00"

Look up pIC50: "CN(C)c1nc(Cc2ccc(NC(=O)c3ccc4ccccc4c3)cc2)nc(Cl)c1CC#N"
6.30 to 7.00

====

Examples of molecules with documented pIC50 follow.
EXPERIMENTAL_SYSTEM: human CRTH2 (Homo sapiens, UniProt Q9Y5Y4)
Construct: expressed in transfected cells; host or cells: L1.2 cells, pEAK expression vector, puromycin-selected
Sequence (Q9Y5Y4 1-395): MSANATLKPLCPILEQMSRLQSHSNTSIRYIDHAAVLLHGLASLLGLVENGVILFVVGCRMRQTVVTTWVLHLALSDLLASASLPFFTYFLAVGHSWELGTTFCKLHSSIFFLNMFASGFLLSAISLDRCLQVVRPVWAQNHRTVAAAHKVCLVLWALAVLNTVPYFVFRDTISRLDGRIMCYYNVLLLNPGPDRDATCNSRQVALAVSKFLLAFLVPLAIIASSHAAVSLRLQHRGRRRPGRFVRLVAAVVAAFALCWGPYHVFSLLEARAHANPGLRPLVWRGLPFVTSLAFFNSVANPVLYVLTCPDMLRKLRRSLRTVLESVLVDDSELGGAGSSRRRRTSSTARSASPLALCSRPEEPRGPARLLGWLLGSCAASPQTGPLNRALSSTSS
MEASUREMENT_DESCRIPTION: Measurement of Ca2+ mobilization in the human CRTH2-transfected L1.2 cell line (Assay 1)
Format: cell-based
EXPERIMENTAL_CONTEXT: PGD2-induced Ca2+ mobilization in CRTH2-transfected L1.2 cells; compounds as yielded by solid phase synthesis, purity about 40 to 90%; read-out: Activity class
pIC50: −log10 of the molar value.

- MOLECULE: "CN(C)c1nc(Cc2ccc(NC(=O)c3ccc(Cl)c(Cl)c3)cc2)nc(N2CCCC2)c1CC(=O)O [Example 7-13]"
  pIC50: "6.30 to 7.00"
- MOLECULE: "CN(C)c1nc(Cc2ccc(NC(=O)[C@@H]3CCc4ccccc4O3)cc2)nc(Cl)c1CC(=O)O [Example 1-67]"
  pIC50: "> 8.00"
- MOLECULE: "CC(c1ccc(NC(=O)/C=C/c2ccccc2)cc1)c1ncc(CC(=O)O)c(N(C)C)n1 (stereo not shown) [Example 2-23]"
  pIC50: "> 8.00"
- MOLECULE: "CN(C)c1nc(Cc2ccc(NC(=O)c3ccc(C(F)(F)F)cc3)cc2)nc(N2CCOCC2)c1CC(=O)O [Example 7-20]"
  pIC50: "7.00 to 8.00"
- MOLECULE: "CN(C)c1nc(Cc2ccc(NC(=O)c3ccc(Cl)c(Cl)c3)cc2)nc(N(C)C)c1CC(=O)O [Example 7-6]"
  pIC50: "> 8.00"
- MOLECULE: "CN(c1nc(Cc2ccc(NC(=O)c3ccc4ccccc4c3)cc2)nc(Cl)c1CC(=O)O)C1CCCCC1 [Example 3-3]"
  pIC50: "> 8.00"

Next molecule, pIC50 to be filled in.
Look up pIC50: CN(C)c1nc(Cc2ccc(NC(=O)c3ccc4ccccc4n3)cc2)nc(Cl)c1CC(=O)O [Example 1-32]
> 8.00

====

Examples of molecules with documented melting point follow.

- MOLECULE: "CN(C)c1nc(Cc2ccc(NC(=O)c3ccc(C(F)(F)F)cc3)cc2)nc(N2CCOCC2)c1CC(=O)O"
  RESULT: "212 to 213 °C (dec.)"
- MOLECULE: "O=C(O)Cc1cnc(Cc2ccc(NC(=O)c3ccc(C(F)(F)F)cc3)cc2)nc1N1CCCC1"
  RESULT: "156 to 158 °C (dec.)"
- MOLECULE: "CC(c1ccc(NC(=O)c2ccc(C(F)(F)F)cc2)cc1)c1ncc(CC(=O)O)c(N(C)C)n1 (centres unmarked)"
  RESULT: "151 to 154 °C"
- MOLECULE: "CN(C)c1nc(Cc2ccc(NC(=O)OCc3ccc(F)cc3)cc2)ncc1CC(=O)O"
  RESULT: "95 to 97 °C"
- MOLECULE: "CN(C)c1nc(Cc2ccc(NC(=O)c3ccc(C(F)(F)F)cc3)cc2)nc(N2CCCC2)c1CC(=O)O"
  RESULT: "144 to 147 °C"
- MOLECULE: "CN(C)c1nc(Cc2ccc(NC(=O)c3ccc4ccccc4n3)cc2)nc(N2CCCC2)c1CC(=O)O"
  RESULT: "131 to 133 °C"
- MOLECULE: "COc1ccc(C(=O)Nc2ccc(Cc3nc(Cl)c(CC(=O)O)c(N(C)C)n3)cc2)cc1"
  RESULT: "> 130 °C"

Next molecule, melting point to be filled in.
Look up melting point: "CN(CC(=O)NC1CCCC1)c1nc(Cc2ccc(NC(=O)CC3Cc4ccccc4C3)cc2)nc(Cl)c1CC(=O)O"
> 110 °C

====

Examples of molecules with documented melting point follow.

# example entries with known answers
- STRUCTURE_SMILES: "CN(C)c1nc(Cc2ccc(NC(=O)c3ccc4ccccc4c3)cc2)ncc1CC(=O)O"
  RESULT: "210 °C"
- STRUCTURE_SMILES: "CN(CC(=O)NC1CCCC1)c1nc(Cc2ccc(NC(=O)C3CC3)cc2)nc(Cl)c1CC(=O)O"
  RESULT: "> 146 °C"
- STRUCTURE_SMILES: "O=C(O)Cc1c(Cl)nc(Cc2ccc(NC(=O)/C=C/c3ccc(Cl)cc3)cc2)nc1N1CCCC1"
  RESULT: "188 to 190 °C"
- STRUCTURE_SMILES: "CN(C)c1nc(Cc2ccc(NC(=O)/C=C/c3ccc(Cl)cc3)cc2)nc(N2CCCC2)c1CC(=O)O"
  RESULT: "146 to 149 °C"
- STRUCTURE_SMILES: "CC(C)c1nc(Cc2ccc(NC(=O)c3ccc4ccccc4c3)cc2)nc(N(C)C)c1CC(=O)O"
  RESULT: "158 to 160 °C"
- STRUCTURE_SMILES: "O=C(O)Cc1c(Cl)nc(Cc2ccc(NC(=O)c3ccc([N+](=O)[O-])cc3)cc2)nc1N1CCCC1"
  RESULT: "134 °C"
- STRUCTURE_SMILES: "CN(C)c1nc(Cc2ccc(NC(=O)c3ccc(Cl)c(Cl)c3)cc2)nc(N2CCOCC2)c1CC(=O)O"
  RESULT: "196 to 198 °C"
- STRUCTURE_SMILES: "CN(CC(=O)NC1CCCC1)c1nc(Cc2ccc(NC(=O)Cc3ccc(-c4ccccc4)cc3)cc2)nc(Cl)c1CC(=O)O"
  RESULT: "124 °C"
- STRUCTURE_SMILES: "CC(C)NC(=O)CN(C)c1nc(Cc2ccc(NC(=O)c3ccc4ccccc4c3)cc2)nc(Cl)c1CC(=O)O"
  RESULT: "181 °C"
- STRUCTURE_SMILES: "CN(CC(=O)NC1CCCCC1)c1nc(Cc2ccc(NC(=O)c3ccc4ccccc4c3)cc2)nc(Cl)c1CC(=O)O"
  RESULT: "134 °C"

Look up melting point: "CN(C)c1nc(Cc2ccc(NC(=O)c3ccc(Cl)c(Cl)c3)cc2)nc(N2CCCC2)c1CC(=O)O"
150 to 152 °C

Look up melting point: "COCc1nc(Cc2ccc(NC(=O)c3ccc4ccccc4c3)cc2)nc(N(C)C)c1CC(=O)O"
128 to 131 °C

Look up melting point: "CN(CC(=O)NC1CCCC1)c1nc(Cc2ccc(NC(=O)Cc3ccc(Oc4ccccc4)cc3)cc2)nc(Cl)c1CC(=O)O"
> 123 °C

Look up melting point: "CN(C)c1nc(Cc2ccc(NC(=O)c3ccc(Br)cc3)cc2)nc(Cl)c1CC(=O)O"
100 °C

Look up melting point: "CN(C)c1ccc(C(=O)Nc2ccc(Cc3nc(Cl)c(CC(=O)O)c(N(C)C)n3)cc2)cc1"
> 111 °C

Look up melting point: "CN(C)c1nc(Cc2ccc(NC(=O)c3cc(Cl)ccc3Cl)cc2)nc(Cl)c1CC(=O)O"
96 °C

Look up melting point: "COc1ccc(C(=O)Nc2ccc(Cc3nc(Cl)c(CC(=O)O)c(N(C)C)n3)cc2)cc1OC"
> 95 °C

Look up melting point: "CN(C)c1nc(Cc2ccc(NC(=O)c3ccc(C(F)(F)F)cc3)cc2)ncc1CC(=O)O"
149 to 153 °C

Look up melting point: "CN(CC(=O)NC1CCCC1)c1nc(Cc2ccc(NC(=O)CCc3ccccc3)cc2)nc(Cl)c1CC(=O)O"
> 139 °C

Look up melting point: "CN(C)c1nc(Cc2ccc(NC(=O)c3ccc(F)c(F)c3)cc2)nc(Cl)c1CC(=O)O"
> 94 °C
